target: Alpha-1B adrenergic receptor (Homo sapiens, UniProt P35368); assay: Displacement of [3H]prazosin from human recombinant alpha1B adrenergic receptor expressed in CHO cell membranes after 30 mins
Sequence (P35368 whole entry): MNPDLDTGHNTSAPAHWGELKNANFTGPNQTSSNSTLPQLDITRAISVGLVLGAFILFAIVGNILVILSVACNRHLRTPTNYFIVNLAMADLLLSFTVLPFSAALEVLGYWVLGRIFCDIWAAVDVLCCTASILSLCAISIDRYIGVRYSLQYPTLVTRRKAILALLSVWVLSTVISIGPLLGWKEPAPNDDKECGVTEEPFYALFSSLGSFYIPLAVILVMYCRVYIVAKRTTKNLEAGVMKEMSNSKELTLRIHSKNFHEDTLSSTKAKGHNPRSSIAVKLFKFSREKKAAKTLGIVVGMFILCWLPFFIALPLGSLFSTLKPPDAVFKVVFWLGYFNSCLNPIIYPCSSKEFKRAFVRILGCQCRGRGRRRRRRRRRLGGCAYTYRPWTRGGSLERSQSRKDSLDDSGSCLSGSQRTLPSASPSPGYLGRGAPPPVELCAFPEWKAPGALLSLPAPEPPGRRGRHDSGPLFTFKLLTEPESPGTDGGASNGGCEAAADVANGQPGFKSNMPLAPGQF
Readout: Ki (nM)

INSERT INTO assay_data (compound, experimental_system, readout, quantitative_readout) VALUES
  ('COc1cccc(OC)c1OCCNC[C@H]1COCC(c2ccccc2)(c2ccccc2)O1', 'Alpha-1B adrenergic receptor (Homo sapiens, UniProt P35368)', 'Ki', 1660),
  ('COc1cccc(OC)c1OCCNCC1COCC(c2ccccc2)(c2ccccc2)O1 (racemic)', 'Alpha-1B adrenergic receptor (Homo sapiens, UniProt P35368)', 'Ki', 324),
  ('c1ccc(OCCNC[C@@H]2COCC(c3ccccc3)(c3ccccc3)O2)cc1', 'Alpha-1B adrenergic receptor (Homo sapiens, UniProt P35368)', 'Ki', 52.5),
  ('COc1ccccc1OCCNCC1COCC(c2ccccc2)(c2ccccc2)O1 (racemic)', 'Alpha-1B adrenergic receptor (Homo sapiens, UniProt P35368)', 'Ki', 56.2),
  ('c1ccc(OCCNC[C@H]2COCC(c3ccccc3)(c3ccccc3)O2)cc1', 'Alpha-1B adrenergic receptor (Homo sapiens, UniProt P35368)', 'Ki', 170),
  ('COc1cccc(OC)c1OCCNC[C@@H]1COCC(c2ccccc2)(c2ccccc2)O1', 'Alpha-1B adrenergic receptor (Homo sapiens, UniProt P35368)', 'Ki', 195),
  ('COc1ccccc1OCCNC[C@H]1COCC(c2ccccc2)(c2ccccc2)O1', 'Alpha-1B adrenergic receptor (Homo sapiens, UniProt P35368)', 'Ki', 417),
  ('c1ccc(OCCNCC2COCC(c3ccccc3)(c3ccccc3)O2)cc1 (racemic)', 'Alpha-1B adrenergic receptor (Homo sapiens, UniProt P35368)', 'Ki', 120),
  ('COc1ccccc1OCCNC[C@@H]1COCC(c2ccccc2)(c2ccccc2)O1', 'Alpha-1B adrenergic receptor (Homo sapiens, UniProt P35368)', 'Ki', 21.9);
